Where these numbers come from: patent US11180474B2

Biological target: human TLR7 (Homo sapiens, UniProt Q9NYK1)
Sequence (Q9NYK1 27-1049): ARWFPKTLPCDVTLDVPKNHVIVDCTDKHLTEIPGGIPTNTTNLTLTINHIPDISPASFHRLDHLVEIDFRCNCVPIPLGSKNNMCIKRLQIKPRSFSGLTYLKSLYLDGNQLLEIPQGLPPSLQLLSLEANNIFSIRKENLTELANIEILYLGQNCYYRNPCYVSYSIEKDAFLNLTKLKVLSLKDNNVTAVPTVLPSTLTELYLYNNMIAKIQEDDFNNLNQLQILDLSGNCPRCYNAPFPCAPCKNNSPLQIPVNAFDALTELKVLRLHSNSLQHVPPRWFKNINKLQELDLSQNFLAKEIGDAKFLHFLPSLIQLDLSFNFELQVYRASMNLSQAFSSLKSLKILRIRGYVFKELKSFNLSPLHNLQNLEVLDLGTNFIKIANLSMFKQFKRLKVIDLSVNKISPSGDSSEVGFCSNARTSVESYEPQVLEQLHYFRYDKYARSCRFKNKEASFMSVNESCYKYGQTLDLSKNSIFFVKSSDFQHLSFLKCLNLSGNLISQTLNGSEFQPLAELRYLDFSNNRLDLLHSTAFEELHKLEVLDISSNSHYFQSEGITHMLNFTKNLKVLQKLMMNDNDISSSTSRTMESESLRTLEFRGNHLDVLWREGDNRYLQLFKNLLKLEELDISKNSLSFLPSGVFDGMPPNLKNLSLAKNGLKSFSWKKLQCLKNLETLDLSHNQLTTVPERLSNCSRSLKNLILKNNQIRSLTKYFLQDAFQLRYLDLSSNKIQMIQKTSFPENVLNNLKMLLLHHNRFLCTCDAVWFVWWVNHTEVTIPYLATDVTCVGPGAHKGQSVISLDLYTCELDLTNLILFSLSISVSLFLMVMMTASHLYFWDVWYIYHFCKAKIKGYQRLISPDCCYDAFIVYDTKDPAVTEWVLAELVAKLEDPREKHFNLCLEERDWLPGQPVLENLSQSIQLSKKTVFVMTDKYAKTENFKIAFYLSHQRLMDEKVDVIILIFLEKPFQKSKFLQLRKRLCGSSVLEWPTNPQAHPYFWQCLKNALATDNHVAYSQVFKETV
Experiment: TLR7 inhibition reporter assay (HEK-Blue cells, SEAP reporter, gardiquimod stimulation)
Conditions: HEK-Blue cells overexpressing human TLR7, gardiquimod 7.5 μM
Counter-ions that a name gives are not always drawn.
The entries below come with measured pIC50 values attached.
FYI, pIC50 means -log10 of a concentration in mol per litre.

compound="CCc1c(-c2ccc(OC)c(OC)c2)[nH]c2cc(C)c(C3CCNCC3)cc12 [Example 396, HCl]" observed=7.33
compound="COc1ccc(-c2[nH]c3ccc(C4CCN(C(=O)CN5CCC[C@H](C(=O)N6CCN(c7cccc(C(F)(F)F)c7)CC6)C5)CC4)cc3c2C(C)C)cc1OC [Example 290]" observed=5.76
compound="COc1ccc(-c2[nH]c3ccc(C4CCN(C(=O)CN5CCN(C)CC5)CC4)cc3c2C)cc1OC [Example 409]" observed=5.99

Now examine the next entry.
Give the measured pIC50 for COc1ccc(-c2[nH]c3ccc(C4CCN(C(=O)CN5CCC[C@H](C(=O)N6CCCC(O)C6)C5)CC4)cc3c2C(C)C)cc1OC (some centres unmarked) [Example 292]
7.66

###

Biological target: human TLR9 (Homo sapiens, UniProt Q9NR96)
Construct: host or cells: HEK-Blue cells
Sequence (Q9NR96 26-1032): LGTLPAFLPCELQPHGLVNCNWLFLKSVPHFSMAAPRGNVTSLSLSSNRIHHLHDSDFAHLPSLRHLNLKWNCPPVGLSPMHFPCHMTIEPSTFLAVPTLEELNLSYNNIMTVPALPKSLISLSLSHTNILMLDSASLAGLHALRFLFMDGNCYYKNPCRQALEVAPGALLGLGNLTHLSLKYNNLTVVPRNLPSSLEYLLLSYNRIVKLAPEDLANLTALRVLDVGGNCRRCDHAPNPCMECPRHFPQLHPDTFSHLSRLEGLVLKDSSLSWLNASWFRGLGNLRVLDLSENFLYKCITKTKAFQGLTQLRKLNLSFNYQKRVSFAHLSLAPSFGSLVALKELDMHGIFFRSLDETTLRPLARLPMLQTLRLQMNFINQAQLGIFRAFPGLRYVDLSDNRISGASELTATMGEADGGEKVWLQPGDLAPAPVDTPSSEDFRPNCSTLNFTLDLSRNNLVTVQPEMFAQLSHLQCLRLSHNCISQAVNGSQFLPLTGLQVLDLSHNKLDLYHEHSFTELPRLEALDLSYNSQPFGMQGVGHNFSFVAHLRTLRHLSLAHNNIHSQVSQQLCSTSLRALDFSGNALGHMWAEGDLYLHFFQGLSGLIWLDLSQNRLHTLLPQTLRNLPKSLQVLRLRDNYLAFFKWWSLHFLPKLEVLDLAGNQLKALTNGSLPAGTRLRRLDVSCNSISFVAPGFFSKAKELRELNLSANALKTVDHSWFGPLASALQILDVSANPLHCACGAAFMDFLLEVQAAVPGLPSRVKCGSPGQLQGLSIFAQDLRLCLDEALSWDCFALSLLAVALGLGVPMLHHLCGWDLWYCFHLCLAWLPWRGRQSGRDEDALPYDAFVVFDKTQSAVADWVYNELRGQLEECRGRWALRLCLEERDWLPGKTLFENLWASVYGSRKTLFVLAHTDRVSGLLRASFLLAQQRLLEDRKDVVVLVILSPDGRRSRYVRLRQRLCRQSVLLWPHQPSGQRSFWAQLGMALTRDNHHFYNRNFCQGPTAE
Experiment: TLR9 inhibition reporter assay (HEK-Blue cells, SEAP reporter, ODN2006 stimulation)
Format: cell-based
Conditions: HEK-Blue cells overexpressing human TLR9, ODN2006 5 nM
The entries below come with measured pIC50 values attached.
FYI, pIC50 means -log10 of a concentration in mol per litre.

molecule="CCC(C)N1CCC(N2CCC(c3ccc4[nH]c(-c5ccc(OC)c(OC)c5)c(C)c4c3)CC2)CC1 (stereo not drawn) [Example 71]" observed=7.01
molecule="CCc1c(-c2ccc(OC)c(OC)c2)[nH]c2ccc(C3CCN(C4CCN(Cc5csnn5)CC4)CC3)cc12 [Example 130]" observed=5.21
molecule="COc1ccc(-c2[nH]c3ccc(C4CCN(C(=O)CCCn5ccnc5)CC4)cc3c2CC(F)(F)F)cc1OC [Example 331]" observed=5.28
molecule="COc1ccc(-c2[nH]c3ccc(C4CCN(CC(=O)NCCCn5ccnc5)CC4)cc3c2CC(F)(F)F)cc1OC [Example 383]" observed=6.18
molecule="COc1ccc(-c2[nH]c3ccc(C4CCN(Cc5ccc(-n6cncn6)cc5)CC4)cc3c2C)cc1OC [Example 34]" observed=6.46
molecule="COc1ccc(-c2[nH]c3ccc(C4CCN(C5CCN(Cc6cccn6C)CC5)CC4)cc3c2C)cc1OC [Example 78]" observed=6.89
molecule="COc1ccc(-c2[nH]c3ccc(C4CCN(C(=O)CN(C)C)CC4)cc3c2C2CCOCC2)cc1OC [Example 393]" observed=5.31
molecule="COc1ccc(-c2[nH]c3ccc(C4CCN(C(=O)COC(C)C)CC4)cc3c2C(C)C)cc1OC [Example 314]" observed=4.57

Give the measured pIC50 for COc1ccc(-c2[nH]c3ccc(C4CCN(C(=O)CN5CCCN(C)CC5)CC4)cc3c2C)cc1OC [Example 410]
5.28

Give the measured pIC50 for COc1ccc(-c2[nH]c3ccc(C4CCN(C5CCCNC5)CC4)cc3c2C)cc1OC (stereo not drawn) [Example 106]
6.51

Give the measured pIC50 for CCc1c(-c2ccc(OC)c(OC)c2)[nH]c2ccc(C3CCN(CCNC)CC3)cc12 [Example 155, di-trifluoroacetic acid]
6.31

Give the measured pIC50 for CCN(CC)C(=O)C1CCCN(CC(=O)N2CCC(c3ccc4[nH]c(-c5ccc(OC)c(OC)c5)c(CC(F)(F)F)c4c3)CC2)C1 (stereo not drawn) [Example 420]
6.55

Give the measured pIC50 for COc1ccc(-c2[nH]c3ccc(C4CCN(C(=O)CS(C)(=O)=O)CC4)cc3c2CC(F)(F)F)cc1OC [Example 347]
4.41

Give the measured pIC50 for CCc1c(-c2ccc(OC)c(OC)c2)[nH]c2ccc(C3CCN(C4CCN(Cc5cc(C)nn5C)CC4)CC3)cc12 [Example 132]
6.16

Give the measured pIC50 for COc1ccc(-c2[nH]c3ccc(C4CCN(C(=O)CN[C@@H](CO)CC(C)C)CC4)cc3c2C(C)C)cc1OC [Example 234]
5.73

Give the measured pIC50 for COc1ccc(-c2[nH]c3ccc(C4CCN(Cc5ccc(-n6ccnc6)cc5)CC4)cc3c2C)cc1OC [Example 39]
6.60

Give the measured pIC50 for CNCCN1CCC(c2ccc3c(c2)c(C)c(-c2ccc(OC)c(OC)c2)n3C)CC1 [Example 114]
6.13

Give the measured pIC50 for COc1ccc(-c2[nH]c3cc(C)c(C4CCN(C5CCN(C(C)C)CC5)CC4)cc3c2C(C)C)cc1OC [Example 206, di trifluoroacetic acid]
6.00

Give the measured pIC50 for COc1ccc(-c2[nH]c3ccc(C4CCN(C5CCN(CC(C)C)C5)CC4)cc3c2C)cc1OC (stereo not drawn) [Example 85]
6.61
